TARGET SYSTEM: human GLP-1 receptor (human, UniProt P43220 24-463)
ASSAY REMARKS: cell-based or functional assay
Numbered stars: 1 amine (or outer) side, 2 acyl side, 3 side chain; on linkers, the order of the positions; unused ones are H or OH. Square brackets hold non-standard residues; d marks the D form. Side chains are listed from the residue outwards. Ends that are not written are not given here. γGlu = O=C(O)[C@H](CCC(=O)[*:2])N[*:1]; X70 = not defined here; x53 = not defined here; Aib = CC(C)(N)C(=O)O

{"BINDER": "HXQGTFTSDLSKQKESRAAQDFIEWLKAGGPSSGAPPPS (dSer at 2; K(x53) at 14; C-terminal NH2) [SEQ ID NO: 66]", "EC50 hGLP-1R (cAMP)": "8.4 pM"}
{"BINDER": "HXQGTFTSDLSKQKDKRAAQLFIEWLKAXGPSSGAPPPS (Aib at 2; K(γE-x76) at 14; dAla at 29; C-terminal NH2) [SEQ ID NO: 212]", "EC50 hGLP-1R (cAMP)": "14.1 pM"}
{"BINDER": "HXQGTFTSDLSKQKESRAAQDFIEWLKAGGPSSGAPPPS (dSer at 2; K(γE-x53) at 14; C-terminal NH2) [SEQ ID NO: 44]", "EC50 hGLP-1R (cAMP)": "2.7 pM"}
{"BINDER": "HXQGTFTSDLSKQKDSRRAQDFIEWLKDGGPSSGAPPPS (dSer at 2; K(γE-x53) at 14; C-terminal NH2) [SEQ ID NO: 80]", "EC50 hGLP-1R (cAMP)": "5.8 pM"}
{"BINDER": "H[Aib]QGTFTSDLSKQK([γGlu-X70])DEQRAKEFIEWLKSGGPSSGAPPPS-NH2 (reading uncertain) [SEQ ID NO: 174]", "EC50 hGLP-1R (cAMP)": "2.6 pM"}
{"BINDER": "H[Aib]QGTFTSDLSKQK(x53)ESQAAQDFIEWLKAGGPSSGAPPPS-NH2 (reading uncertain) [SEQ ID NO: 43]", "EC50 hGLP-1R (cAMP)": "4.1 pM"}
